Reference source: patent US12679888B2

ASSAY TARGET: T1, human interleukin-18 (Homo sapiens, UniProt Q14116)
T1 sequence (Q14116 37-193): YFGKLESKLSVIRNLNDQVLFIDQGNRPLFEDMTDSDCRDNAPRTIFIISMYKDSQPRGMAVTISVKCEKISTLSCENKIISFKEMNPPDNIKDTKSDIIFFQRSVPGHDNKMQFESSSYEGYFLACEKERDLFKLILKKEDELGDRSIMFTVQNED
EXPERIMENT: Luminex screening first step: monoclonal antibodies binding on IL-18
CONDITION DESCRIPTION: IL-18 attached to Luminex beads
OBSERVATION TYPE: Monoclonal antibodies binding on IL-18, Fluorescence intensity

Example entries begin here.
Input line: Read off the recorded Monoclonal antibodies binding on IL-18, Fluorescence intensity for Antibody 132H4: monoclonal anti-IL-18 antibody; VH SEQ ID NO 23, VK SEQ ID NO 24 (antibody, V domains shown, Antibody 132H4 VH variable domain sequence; Antibody 132H4 VK variable domain sequence) VH: EVKLVESGGGLVKPGGSLKLSCAASGFTFSNYAMSWVRQNPAKRLEWVATISSGGANIYYPDSVKGRFIISRDNARNTLYLQMSSLRSEDTAMYYCARGDYFNHFWFAYWGQGTLVTVSA VL: DVLMTQTPLSLPVSLGDQASISCRSSQSIVHSNGNTYLEWYLQKPGQSPKFLIYKVSNRFSGVPDRFSGSGSGTDFTLKINRVEAEDLGIYYCFQGSHVPWTFGGGTKLEIK
Output line: 23 839

Input line: Please report the measured Monoclonal antibodies binding on IL-18, Fluorescence intensity for Antibody 109A6: monoclonal anti-IL-18 antibody; VH SEQ ID NO 13, VK SEQ ID NO 14 (antibody, V domains shown, Antibody 109A6 VH variable domain sequence; Antibody 109A6 VK variable domain sequence) VH: EVQLQQSGAELVKPGASVKLSCTASGFKIKDTYIHWVIQRPAQGLEWIGRIDPANGNTIYGSKFQGKATLTADTSSNTAYIHLSSLTSGDSAVYYCAGYVWFAYWGQGTLVTVSA VL: DVVMTQVPLSLPVSLGDQASISCRSSQRLVHSNGNTYLHWFLQKPGQSPKLLIYTVSNRFSGVPDRFSGSGSGTDFTLKISRVEAEDLGVYFCSQSTLVPWTFGGGTKLEIK
Output line: 25 848

Next molecule, please.
Input line: Return Monoclonal antibodies binding on IL-18, Fluorescence intensity for the following molecule: Antibody 107C6: monoclonal anti-IL-18 antibody; VH SEQ ID NO 9, VK SEQ ID NO 10 (antibody, V domains shown, Antibody 107C6 VH variable domain sequence; Antibody 107C6 VK variable domain sequence) VH: QIQLVQSGPELKKPGETVKLSCRASGYTFTNYGMNWVKQAPGKGLKWMGWINTYSGVPTYADDFKGQFAFSLETSAATAFLQINNLKDEDTATYFCAREGYSTTRSMDYWGQGTSVTVSS VL: DIVMSQSPSSLAVSAGEKVTMSCKSSQSLLDSRTRKNYLVWYQQKPGQSPKLLIYWASTRGSGVPDRFTGSGSGTDFTLTISSVQAEDLAVYYCKQSYNLRTFGGGTKLEIK
Output line: 26 250
